Recorded values, source the supplement of paper PMC11061612.

# System: WM278 (Melanoma)
# protocol: combination Emax (second highest fraction inhibited in the dose matrix, 72 h); higher = more inhibition; extreme values may be limits of the assay
recorded_metric: combination Emax
The answer should be a number; do not append a unit.

Given the compound CN(CCO)CC[C@H](CSc1ccccc1)Nc1ccc(S(=O)(=O)NC(=O)c2ccc(N3CCC([C@@H](O)c4ccccc4-c4ccc(Cl)cc4)CC3)cc2)cc1S(=O)(=O)C(F)(F)F [AZD4320] + C[C@@H](Nc1cc(F)cc(F)c1)c1cc(C(=O)N(C)C)cc2c(=O)cc(N3CCOCC3)oc12 [AZD8186] (first compound max 1 µM, 7x7, partner max 3 µM) , what is its reported combination Emax?
0.85

Given the compound CC(=O)Nc1cccc(-n2c(=O)n(C3CC3)c(=O)c3c(Nc4ccc(I)cc4F)n(C)c(=O)c(C)c32)c1 [Trametinib] + Cc1nc(-c2cn3c(n2)-c2ccc(-c4cnn(C(C)(C)C(N)=O)c4)cc2OCC3)n(C(C)C)n1 [Taselisib] (first compound max 1 µM, 7x7, partner max 10 µM) , what is its reported combination Emax?
0.983

Given the compound Cc1c2c(nn1C)CSCc1cc(n(C)n1)CSc1cc(c3ccccc3c1)OCCCc1c(C(=O)O)n(C)c3c-2c(Cl)ccc13 [AZD5991] + C[C@@H](Nc1cc(F)cc(F)c1)c1cc(C(=O)N(C)C)cc2c(=O)cc(N3CCOCC3)oc12 [AZD8186] (first compound max 1 µM, 7x7, partner max 3 µM) , what is its reported combination Emax?
0.365

* * *

# System: NCI-H23 (Lung Adenocarcinoma);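 also: after 72 h of two-drug dosing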
# protocol: Bliss excess, mean over the matrix (fraction); higher = more synergy
recorded_metric: Bliss excess
The answer should be a number; do not append a unit.

Given the compound COc1cccc(OCCCN)c1-c1cc(Nc2cnc(C#N)cn2)n[nH]1 [Prexasertib] + Cc1cc2ncnn2cc1Nc1ncc2c(n1)n(C1CCOCC1)c(=O)n2C [AZD7648] (first compound max 1 µM, 7x7, partner max 10 µM) , what is its reported Bliss excess?
-0.026

Given the compound Cc1c2c(nn1C)CSCc1cc(n(C)n1)CSc1cc(c3ccccc3c1)OCCCc1c(C(=O)O)n(C)c3c-2c(Cl)ccc13 [AZD5991] + C=CCn1c(=O)c2cnc(Nc3ccc(N4CCN(C)CC4)cc3)nc2n1-c1cccc(C(C)(C)O)n1 [AZD1775] (first compound max 1 µM, partner max 1 µM) , what is its reported Bliss excess?
-0.0174

Given the compound NC1(C(=O)N[C@@H](CCO)c2ccc(Cl)cc2)CCN(c2ncnc3[nH]ccc23)CC1 [Capivasertib] + CC(C)n1c(=O)n(C)c2cnc3cc(F)c(-c4ccc(OCCCN5CCCCC5)nc4)cc3c21 [AZD1390] (first compound max 10 µM, 7x7, partner max 0.3 µM) , what is its reported Bliss excess?
-0.0484

Given the compound CC(=O)c1c(C)c2cnc(Nc3ccc(N4CCNCC4)cn3)nc2n(C2CCCC2)c1=O [Palbociclib] + Cc1c2c(nn1C)CSCc1cc(n(C)n1)CSc1cc(c3ccccc3c1)OCCCc1c(C(=O)O)n(C)c3c-2c(Cl)ccc13 [AZD5991] (first compound max 10 µM, 7x7, partner max 1 µM) , what is its reported Bliss excess?
-0.0562

Given the compound Cc1c2c(nn1C)CSCc1cc(n(C)n1)CSc1cc(c3ccccc3c1)OCCCc1c(C(=O)O)n(C)c3c-2c(Cl)ccc13 [AZD5991] + C1CN(CCC1(C(=O)N[C@@H](CCO)C2=CC=C(C=C2)Cl)N)C3=NC=NC4=C3C=CN4 [Capivasertib] (first compound max 1 µM, 7x7, partner max 3 µM) , what is its reported Bliss excess?
-0.0276

Given the compound Cc1nc(Nc2ncc(C(=O)Nc3c(C)cccc3Cl)s2)cc(N2CCN(CCO)CC2)n1 [Dasatinib] + CC(=O)Nc1cccc(-n2c(=O)n(C3CC3)c(=O)c3c(Nc4ccc(I)cc4F)n(C)c(=O)c(C)c32)c1 [Trametinib] (first compound max 2 µM, 7x7, partner max 1 µM) , what is its reported Bliss excess?
0.0225

Given the compound CC1(C)CCC(CN2CCN(c3ccc(C(=O)NS(=O)(=O)c4ccc(NCC5CCOCC5)c([N+](=O)[O-])c4)c(Oc4cnc5[nH]ccc5c4)c3)CC2)=C(c2ccc(Cl)cc2)C1 [Venetoclax] + C[C@@H](Nc1cc(F)cc(F)c1)c1cc(C(=O)N(C)C)cc2c(=O)cc(N3CCOCC3)oc12 [AZD8186] (first compound max 1 µM, 7x7, partner max 3 µM) , what is its reported Bliss excess?
0.007
